Assay: Solubility in water at 25 deg. C.
Type: physicochemical
Conditions: average of triplicate
Structures can show the parent of a compound that is named as a salt.
readout label: Solubility in water (mg/mL)

Solved cases below.
>  <molecule>
NCCCC[C@H](N[C@H]1CCc2ccccc2N(CC(=O)O)C1=O)C(=O)O [CGS 16617. dihydrochloride]

>  <Solubility in water / mg/mL>
1127.8

$$$$
>  <molecule>
NCC(CC(=O)O)c1ccc(Cl)cc1 (stereo not drawn) [Bac. ethane sulfonate]

>  <Solubility in water / mg/mL>
38.8898

$$$$
>  <molecule>
NCC(CC(=O)O)c1ccc(Cl)cc1 (stereo not drawn) [Bac. methane sulfonate, baclofen methane sulfonate]

>  <Solubility in water / mg/mL>
8.8269

$$$$
>  <molecule>
NCC(CC(=O)O)c1ccc(Cl)cc1 (stereo not drawn) [Bac. sodium salt]

>  <Solubility in water / mg/mL>
21.3797

$$$$
>  <molecule>
NCCCC[C@H](N[C@H]1CCc2ccccc2N(CC(=O)O)C1=O)C(=O)O [CGS 16617. dihydrobromide]

>  <Solubility in water / mg/mL>
1423

$$$$

P = NCC(CC(=O)O)c1ccc(Cl)cc1 (stereo not drawn) [Bac. propane sulfonate]
Q = NCC(CC(=O)O)c1ccc(Cl)cc1 (stereo not drawn) [Bac. hydrochloride]
Lab note: check whether P or Q has the lower measured Solubility in water. Please respond with the label that marks your chosen entry.
P
(P: 24.4257 mg/mL, Q: 244.6225 mg/mL)

###

Experiment: Permeation rate through polyurethane
Assay type: physicochemical
Settings: relative to free zwitterion
From the text: In the examples, the solubilities of free zwitterion and enhanced solubilities of various salts thereof are reported in various degrees in the following solvents: water, ethanol, octanol, chloroform and human stratum corneum. Permeation rates are also shown for these zwitterionic compounds and enhanced fluxes of the salts thereof through materials including polyurethane. […] Average of values measured in triplicate.
Structures can show the parent of a compound that is named as a salt.
readout label: R.E. (relative enhancement) of permeation rate through polyurethane

>  <molecule>
N[C@@H](Cc1ccccc1)C(=O)O [Phenylalanine (Phe), Phenylalanine, reference compound]

>  <recorded value>
1.00

$$$$
>  <molecule>
NCC(CC(=O)O)c1ccc(Cl)cc1 (stereo not drawn) [Bac. propane sulfonate]

>  <recorded value>
43.97

$$$$
>  <molecule>
NCC(CC(=O)O)c1ccc(Cl)cc1 (stereo not drawn) [Bac. lithium salt]

>  <recorded value>
24.12

$$$$
>  <molecule>
NCC(CC(=O)O)c1ccc(Cl)cc1 (stereo not drawn) [Bac. hydrofluoride]

>  <recorded value>
0.65

$$$$
>  <molecule>
NCC(CC(=O)O)c1ccc(Cl)cc1 (stereo not drawn) [Bac. ethane sulfonate]

>  <recorded value>
39.83

$$$$

I = NCC(CC(=O)O)c1ccc(Cl)cc1 (stereo not drawn) [Bac. sodium salt]
II = NCC(CC(=O)O)c1ccc(Cl)cc1 (stereo not drawn) [Baclofen (Bac), Baclofen, reference compound]
III = NCC(CC(=O)O)c1ccc(Cl)cc1 (stereo not drawn) [Bac. methane sulfonate, baclofen methane sulfonate]
IV = NCC(CC(=O)O)c1ccc(Cl)cc1 (stereo not drawn) [Bac. fumarate]
V = NCC(CC(=O)O)c1ccc(Cl)cc1 (stereo not drawn) [Bac. maleate]
Rank ascending by R.E. (relative enhancement) of permeation rate through polyurethane. Lab note: final answer is the ordered label list.
II, IV, V, III, I
